Form field: Kd (one value per entry).
- TEST SYSTEM: T1, Canine IL31 (canine)
- T1 chain: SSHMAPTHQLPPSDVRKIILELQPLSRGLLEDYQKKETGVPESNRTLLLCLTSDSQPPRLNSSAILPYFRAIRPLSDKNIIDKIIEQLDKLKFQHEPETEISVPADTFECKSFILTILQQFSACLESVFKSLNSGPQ
- ASSAY OVERVIEW: SPR, BIAcore 8K, Protein A sensor chip
- Experimental: Chimeric antibodies composed of different combinations of cmVH1, cmVH2, or cmVH3 fused to human IgG1 heavy chain and cmVL1, cmVL2, and cmVL3 fused to human kappa constant light chain were generated. Caninized VH of M14 (SEQ ID NO: 3) fused to human IgG1 heavy chain and caninized VL of M14 (SEQ ID NO: 4) fused to human kappa constant light chain was also generated. Affinity of canine IL31 to the different chimeric antibodies was measured using a BIAcore 8K, as described in Table 3 below: […]
Report the value in pM with no unit label.

Example entries begin here.
Caninized VH-VL M14 chimeric antibody (caninized VH of M14 fused to human IgG1 heavy chain and caninized VL of M14 fused to human kappa constant light chain) (antibody, V domains shown, Chimeric: VH fused to human IgG1 heavy chain, VL fused to human kappa constant light chain; also called analyte 1; caninized VH-VL M14 antibody control) VH: EVQLVESGPSLVKPGGSLRLTCSVTGDSITSGYWNWIRKFPGNKLEYMGYISYSGITDYNPSLKSRITISRDTSKNQYYLQLNSVTTEDTATYYCARYGNYGYAMDYWGQGTSVTVSS VL: DIVMTQSPASLSVSLGQRATISCRASESVDTYGNSFMHWYQQKPGQSPKLLIYRASNLESGIPARFGGSGSGTDFTLTIDPVQADDVATYYCQQSYEDPWTFGGGTKLEIK    2180
cmVH3 + cmVL3 chimeric antibody (antibody, human IgG1, V domains shown, also called analyte 6) VH: EVQLVESGPSLVKPGGSLRLTCSVTGDSITSGYWKWIRKFPGNKLEYMGYISYSGITDYNPSLKSRITISRDTSKNQYYLQLNSVTTEDTATYYCARYANYGYAMDYWGQGTSVTVSS VL: DIVMTQSPASLSVSLGQRATISCRASESVDTYGRSFMHWYQQKPGQSPKLLIYRASNLESGIPARFGGSGSGTDFTLTIDPVQADDVATYYCHQSYEDPWTFGGGTKLEIK    858

We next turn to a different binder, shown below.
QUERY: Entry under review: cmVH2 + cmVL2 chimeric antibody (antibody, human IgG1, V domains shown, also called analyte 3) VH: EVQLVESGPSLVKPGGSLRLTCSVTGDSITSGYWKWIRKFPGNKLEYMGYISYSGITDYNPSLKSRITISRDTSKNQYYLQLNSVTTEDTATYYCARYPNYGYAMDYWGQGTSVTVSS VL: DIVMTQSPASLSVSLGQRATISCRASESVDTYGRSFMHWYQQKPGQSPKLLIYRASNLESGIPARFGGSGSGTDFTLTIDPVQADDVATYYCYQSYEDPWTFGGGTKLEIK . Reported Kd?
RESULT: 914
